assay: Cmax in Sprague-Dawley rat at 5 mg/10 mL/kg, po in 10% aqueous gelucire 44/14; assay type: ADME, organism-based; details: in vivo, 5 mg/kg

{"smilesNotation": "O=C(Nc1ncc(F)s1)[C@H](CC1CCOCC1)c1ccc(S(=O)(=O)C2CC2)cc1", "valueUnits": "ng/mL", "Cmax": 1130}

---

experiment: Cmax in Sprague-Dawley rat at 250 mg/kg, po; format: ADME, organism-based; set-up: dose 250 mg/kg, route oral; settings: in vivo

{"smilesNotation": "O=C(Nc1ncc(F)s1)[C@H](CC1CCOCC1)c1ccc(S(=O)(=O)C2CC2)cc1", "Cmax [ng/mL]": 49200}

Data origin: ChEMBL document CHEMBL1155108
